The following are reported IC50 results, target or system CRTh2 receptor (Homo sapiens, UniProt Q9Y5Y4).
State the answer as a number, implicitly in nM.

Worked set:
compound.smiles	IC50 [nM]
CCN(Cc1ccccc1-c1nn(CC(=O)O)c2ccc(Cl)cc12)C(=O)C1CC1	9
CCN(Cc1cc(F)ccc1-c1nn(CC(=O)O)c2ccc(Cl)cc12)C(C)=O	10
CCN(Cc1cc(C(F)(F)F)ccc1-c1cn(CC(=O)O)c2ccc(F)cc12)C(=O)C1CC1	18

Turning now to a further record.
Look up IC50: CCN(Cc1cc(C(F)(F)F)ccc1-c1cn(CC(=O)O)c2ccc(F)cc12)C(=O)NCc1ccccc1
16
